- Tested on: M14 melanoma
- Run description: NCI tumour cell line growth inhibition, 48 h
Measure name: TGI

Field request: TGI | item: "COc1cc(CNC(=O)/C=C/C=C/c2ccc3c(c2)OCO3)ccc1OCc1cn(-c2ccc(Cl)c(Cl)c2)nn1"
2.39 µM

Similarly, "O=C(N[C@H](c1ccc(Cl)c(Cl)c1)C1CNC1)c1ccc2cnccc2c1" ?
16.7 µM

Record: "CSC1=N/C(=C\c2cccs2)C(=O)N1CN1CCOCC1"
> 100 µM

Also C=CCN1C(=O)/C(=c2\sc3n(c2=O)C2C(NN=3)N(CC)C(=O)N2CC)c2ccccc21 (stereo not drawn) ?
> 100 µM

Same lookup for "O=C(ON=c1c2ccccc2ccc2ccccc12)c1cc([N+](=O)[O-])cc([N+](=O)[O-])c1" , please.
> 100 µM

Lookup "OC(c1cc(C(O)(C(F)(F)F)C(F)(F)F)ncn1)(C(F)(F)F)C(F)(F)F"
> 10 µM

Thanks! And CC1=C(C)C(=O)OC(C(C)(O)C2(O)CCC3(O)C4CC(Cl)C5(O)C(O)C=CC(=O)C5(C)C4CCC32C)C1 (stereo not drawn) ?
> 100 µM

Try "NCCCNCCSSCc1ccccc1CSSCCNCCCN" next.
> 100 µM
